test description: total protein half-life in vivo (active degradation + dilution); higher = more stable protein
condition: wild type E. coli NCM3722; growth: N-lim chemostat; doubling time 6 h
readout kind: total protein half-life in vivo

- sequence record: "MSLSRTQIVNWLTRCGDIFSTESEYLTGLDREIGDADHGLNMNRGFSKVVEKLPAIADKDIGFILKNTGMTLLSSVGGASGPLFGTFFIRAAQATQARQSLTLEELYQMFRDGADGVISRGKAEPGDKTMCDVWVPVVESLRQSSEQNLSVPVALEAASSIAESAAQSTITMQARKGRASYLGERSIGHQDPGATSVMFMMQMLALAAKE"
  readout kind: "total protein half-life in vivo"
  reported value: "4.43 h"
- sequence record: "MTQPMPGKPAEDAENELDIRGLFRTLWAGKLWIIGMGLAFALIALAYTFFARQEWSSTAITDRPTVNMLGGYYSQQQFLRNLDVRSNMASADQPSVMDEAYKEFVMQLASWDTRREFWLQTDYYKQRMVGNSKADAALLDEMINNIQFIPGDFTRAVNDSVKLIAETAPDANNLLRQYVAFASQRAASHLNDELKGAWAARTIQMKAQVKRQEEVAKAIYDRRMNSIEQALKIAEQHNISRSATDVPAEELPDSEMFLLGRPMLQARLENLQAVGPAFDLDYDQNRAMLNTLNVGPTLDPRFQTYRYLRTPEEPVKRDSPRRAFLMIMWGIVGGLIGAGVALTRRCSK [P0AG00]"
  readout kind: "total protein half-life in vivo"
  reported value: "6.6 h"

The measured values listed here are drawn from the supplement of paper PMC11246515.
